Entries and their measured pest or weed control at 125 g/ha follow.
tested on: barnyardgrass (Echinochloa crus-galli); assay: Test A postemergence; assay type: in vivo; conditions: Echinochloa crus-galli, post-emergence, 240 h, 125 g ai/ha, postemergence; visual injury on 0 to 100 scale (0 no effect, 100 complete control), approx. 10 d; read-out: Barnyardgrass plant response rating
# output: bare number, implied unit %

Previously resolved entries follow.
compound=CN1C[C@H](c2csc3c2CCC3)[C@@H](C(=O)Nc2ccccc2S(C)(=O)=O)C1=O result_value=30
compound="CN1CC(c2ccccc2OC(F)(F)C(F)F)C(C(=O)Nc2ccccc2F)C1=O (stereo not shown)" result_value=0
compound="Cc1ccc([C@H]2CNC(=O)[C@]2(Br)C(=O)Nc2cccc(F)c2F)cc1F (racemic)" result_value=70
compound=Cc1cc([C@H]2CNC(=O)[C@@H]2C(=O)Nc2ccc(F)cc2F)ccc1C(F)(F)F result_value=50
compound=CC(C)Oc1cc([C@H]2CN(C)C(=O)[C@@H]2C(=O)Nc2cccc(F)c2F)ccc1F result_value=90
compound=Cc1cc([C@H]2CN(C)C(=O)[C@@H]2C(=O)Nc2ccccc2C(F)(F)F)ccc1Br result_value=70
compound=Cc1c(F)cccc1NC(=O)[C@H]1C(=O)N(C)C[C@@H]1c1cc(F)cc(F)c1 result_value=90
compound=C=C(C)c1cccc([C@H]2CN(C)C(=O)[C@@H]2C(=O)Nc2ccc(F)c(F)c2F)c1 result_value=90

Request: State the recorded pest or weed control at 125 g/ha for this entry: CN1C[C@H](c2cc(C(F)F)cs2)[C@@H](C(=O)Nc2cnccc2C(F)(F)F)C1=O
Result: 0

Request: Now consider C=C(C)c1ccc([C@H]2CN(C)C(=O)[C@@H]2C(=O)Nc2ccc(F)c(F)c2F)cc1 and answer again.
Result: 80

----------
system: ryegrass, Italian (Italian ryegrass, Lolium multiflorum); assay: Test A postemergence; format: in vivo; conditions: Lolium multiflorum, post-emergence, 240 h, 125 g ai/ha, postemergence, visual injury vs untreated controls after approx. 10 d; 0 = no effect, 100 = complete control; read-out: Ryegrass, Italian plant response rating (0 to 100 scale)
observation.type: pest or weed control at 125 g/ha (%)
Kindly answer with a numeric value in %, unit omitted.

// below: answered compounds
compound=Cc1cc([C@H]2CN(C)C(=O)[C@@H]2C(=O)Nc2cccc(F)c2F)no1 result_value=0
compound=Cn1ccc2ccc([C@H]3CNC(=O)[C@@H]3C(=O)Nc3ccccc3F)cc21 result_value=0
compound=CCc1ccc([C@H]2CNC(=O)[C@@H]2C(=O)Nc2c(F)cccc2F)cc1 result_value=0

Request: So what does the record say about pest or weed control at 125 g/ha for Cc1c(F)cccc1NC(=O)[C@H]1C(=O)N(C)C[C@@H]1c1ccc(F)cc1 ?
Result: 0

----------
test system: pigweed (Amaranthus retroflexus); assay: Test A preemergence; assay type: in vivo; conditions: Amaranthus retroflexus, pre-emergence, 240 h, 31 g ai/ha, Preemergence; 0 to 100 scale where 0 is no effect and 100 is complete control; read-out: Pigweed plant response rating
Overview of reported pest or weed control at 31 g/ha across a group of compounds:
// note: answer is a bare numeric in %

For orientation, consider the following solved cases.
compound="Cc1cc([C@H]2CN(C)C(=O)[C@@H]2C(=O)Nc2ccccc2C(F)(F)F)ccc1Br [Compound 1103]" tested_target="pigweed (Amaranthus retroflexus)" observation_type="pest or weed control at 31 g/ha" result_value=0
compound="O=C1NC[C@H](c2ccc(C(F)(F)F)cn2)[C@H]1C(=O)Nc1cccc(F)c1F [Compound 1104]" tested_target="pigweed (Amaranthus retroflexus)" observation_type="pest or weed control at 31 g/ha" result_value=0
compound="CN1C[C@H](c2ccccc2)[C@@H](C(=O)Nc2cccc(F)c2F)C1=O [Compound 1282]" tested_target="pigweed (Amaranthus retroflexus)" observation_type="pest or weed control at 31 g/ha" result_value=60

Request: Given the compound Cc1ccncc1NC(=O)[C@H]1C(=O)N(C)C[C@@H]1c1ccc2c(c1)OC(F)(F)O2 [Compound 1351] , what is its reported pest or weed control at 31 g/ha?
Result: 0

Request: Try this compound too: CN1C[C@H](c2csc3c2CCCC3)[C@@H](C(=O)Nc2cccc(F)c2F)C1=O [Compound 1276]
Result: 0

Request: Would you mind doing Cc1cc([C@H]2CN(C)C(=O)[C@@H]2C(=O)Nc2cccc(F)c2F)no1 [Compound 1237] as well?
Result: 0

Request: Item: CN1C[C@H](c2ccc(C(F)(F)F)cc2)[C@@H](C(=O)Nc2ccccc2-n2cncn2)C1=O [Compound 1288]
Result: 0

Request: Here is the next compound: CN1CC(c2cccc(C(F)(F)F)c2)C(C(=O)Nc2ccccc2C(C)(C)O)C1=O (stereo not drawn) [Compound 1146]
Result: 0

----------
test system: Galium (catchweed bedstraw, Galium aparine); assay: Test A postemergence; format: in vivo; settings: Postemergence, 500 g ai/ha; 0 to 100 scale where 0 is no effect and 100 is complete control
observation.type: Plant response rating, Galium

As a guide, the following entries are already answered.
molecule="CC(C)c1ccc(C2CNC(=O)C2C(=O)Nc2ccccc2F)cc1 (stereo not shown) [Compound 469]" tested_target="Galium (catchweed bedstraw, Galium aparine)" result_value=0
molecule="Cc1ccc(C2CNC(=O)C2C(=O)Nc2ccc(F)cc2F)c(F)c1 (racemic) [Compound 508]" tested_target="Galium (catchweed bedstraw, Galium aparine)" result_value=20

Request: Write down the reported Plant response rating, Galium of CN1CC(c2cccc(C(F)(F)F)c2)C(C(=O)Nc2ccccc2)C1=O (stereo not shown) [Compound 577] , test system: Galium (catchweed bedstraw, Galium aparine).
Result: 50

----------
tested on: barnyardgrass (Echinochloa crus-galli); assay: Test G Post-Emergence Protocol; assay type: in vivo; settings: Echinochloa crus-galli, post-emergence, 312 h, 62.5 g ai/ha, evaluated after 13 days, read-out: Barnyardgrass damage rating (100=total damage to plant; 0=no damage to plant)
observation.type: pest or weed control at 62.5 g/ha (%)
// note: answer is a bare numeric in %

Would you please look over these solved cases?
compound="CSc1nc(N)cc(NC(=O)[C@@H]2C(=O)N(C)C[C@H]2c2ccc(C(F)(F)F)cc2)n1 (racemic)" measurement_units=% result_value=0
compound="CN1C[C@H](c2cccc(C(F)F)c2)[C@@H](C(=O)Nc2cccc(F)c2F)C1=O (racemic)" measurement_units=% result_value=80
compound="Cc1c(NC(=O)[C@@H]2C(=O)N(C)C[C@H]2c2ccc(C(F)(F)F)cc2)ccc(F)c1F (racemic)" measurement_units=% result_value=60
compound="Cc1ncsc1NC(=O)[C@@H]1C(=O)N(C)C[C@H]1c1ccc(C(F)(F)F)cc1 (racemic)" measurement_units=% result_value=0
compound="CN1C[C@@H](c2ccc(C(F)(F)F)cc2)[C@H](C(=O)Nc2cc[nH]n2)C1=O (racemic)" measurement_units=% result_value=0

Request: Which pest or weed control at 62.5 g/ha value is on record for CN1C[C@@H](c2ccc(C(F)(F)F)cc2)[C@H](C(=O)Nc2ncc(Br)cn2)C1=O (racemic) ?
Result: 0

Request: What about this compound? Cc1c(NC(=O)[C@@H]2C(=O)N(C)C[C@H]2c2ccc(C(F)(F)F)cc2)ccnc1Cl (racemic)
Result: 10

----------
system: corn (Zea mays); experiment: Test A postemergence; assay type: in vivo; conditions: Zea mays, post-emergence, 240 h, Postemergence, 31 g ai/ha; 0 is no effect, 100 is complete control; read-out: Corn plant response rating (0 to 100 scale)
Reported plant injury at 31 g/ha values follow for various compounds
Include the unit right after the number.

compound="O=C(Nc1ccccc1F)[C@H]1C(=O)N(CC(F)F)C[C@@H]1c1cccc(C(F)(F)F)c1 [Compound 1295]" tested_target="corn (Zea mays)" result_value=0%
compound="CN1C[C@H](c2csc3c2CCCC3)[C@@H](C(=O)Nc2cccc(F)c2F)C1=O [Compound 1276]" tested_target="corn (Zea mays)" result_value=0%

Request: Consider the compound shown here: Cc1ccncc1NC(=O)[C@H]1C(=O)N(C)C[C@@H]1c1ccc2c(c1)OC(F)(F)O2 [Compound 1351] What is its recorded plant injury at 31 g/ha?
Result: 0%

Request: Param item: O=C(Nc1cccc(F)c1F)[C@H]1C(=O)N(CC(F)F)C[C@@H]1c1cccc(C(F)(F)F)c1 [Compound 1296]
Result: 0%

Request: Would you mind doing CN1C[C@H](c2cccc(C(F)(F)F)c2)[C@@H](C(=O)Nc2cccnc2F)C1=O [Compound 1397] as well?
Result: 50%

----------
Let's look at some compounds and their measured pest or weed control at 125 g/ha.
system: barnyardgrass (Echinochloa crus-galli); test: Test A preemergence; format: in vivo; details: Echinochloa crus-galli, pre-emergence, 240 h, 125 g ai/ha, Preemergence, visual injury rating after approximately 10 d; read-out: Barnyardgrass plant response rating (0 to 100 scale, 0 is no effect, 100 is complete control)
Write the value in % as a bare number.

Answered cases to consult:
compound="CC(C)COc1cccc([C@H]2CN(C)C(=O)[C@@H]2C(=O)Nc2ccccc2F)c1 [Compound 1028]" tested_target="barnyardgrass (Echinochloa crus-galli)" measurement_units=% result_value=90
compound="COc1ccc([C@H]2CN(C)C(=O)[C@@H]2C(=O)Nc2cccc(F)c2F)cc1C(F)(F)F [Compound 986]" tested_target="barnyardgrass (Echinochloa crus-galli)" measurement_units=% result_value=90
compound="CSc1ccccc1NC(=O)[C@H]1C(=O)N(C)C[C@@H]1c1ccc(C)c(Cl)c1 [Compound 1015]" tested_target="barnyardgrass (Echinochloa crus-galli)" measurement_units=% result_value=90

Request: Entry under review: CN1C[C@H](c2cc(F)cc(F)c2)[C@@H](C(=O)Nc2ccc(O)cc2F)C1=O [Compound 985] . Reported pest or weed control at 125 g/ha?
Result: 0
